system: wheat germ agglutinin (Triticum aestivum), Alexa647-labelled; assay: wheat germ agglutinin binders on compound microarrays, profiling panel, artefact control for SMM control-protein annotation, biochemical, small-molecule microarray, 635/667 nm fluorescence (AID 1140); conditions: WGA-A647 binding, 635 nm fluorescence, higher = more signal;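 also: score merges 667 nm feature emission with signal to noise over triplicate slides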
Could you label it yes (1) if measured composite z-score is 0.6 or higher, and no (0) otherwise?

> print(dat)
                                   compound                          target.or.system  group.label
1  C=C(CCCC)C(=O)CC[C@@H](OC(C)=O)c1cccc(OCCO)c1  wheat germ agglutinin (Triticum aestivum), Alexa647-labelled       no (0)
2  COC(=O)[C@@]1(Cc2ccc(F)cc2)[C@@H]2C(=CC(=O)[C@H]2CC(=O)C(=O)N(C)C)CN1C(=O)c1ccccc1  wheat germ agglutinin (Triticum aestivum), Alexa647-labelled      yes (1)
3  CC(C)=CCCC(C)=CCON=C1[C@H]2CCn3c(=O)n(Cc4cc5c(cc4Cl)OCO5)c(=O)n3[C@H]2[C@H](O)[C@@H]2O[C@H]12  wheat germ agglutinin (Triticum aestivum), Alexa647-labelled       no (0)
4  CC(CCN1CCCCc2nc(C)c(C)cc21)=NOC(C)CN1CCCCc2nc(C)c(C)cc21 (stereo not drawn)  wheat germ agglutinin (Triticum aestivum), Alexa647-labelled      yes (1)
5  CC(CCN1CCCCc2nc(C)c(C)cc21)=NOC(C)CN1CCCc2nc(C)c(C)cc21 (stereo not drawn)  wheat germ agglutinin (Triticum aestivum), Alexa647-labelled      yes (1)
6          COC(=O)[C@H](C)NC(=O)[C@@H](C)CO  wheat germ agglutinin (Triticum aestivum), Alexa647-labelled      yes (1)
7  CCOC(=O)[C@H](Cc1ccccc1)NC(=O)CCC1CC(OC(=O)NCc2ccc3c(c2)OCO3)CC2(CCCC(COC(=O)NCc3ccccc3)O2)O1 (stereo partly drawn)  wheat germ agglutinin (Triticum aestivum), Alexa647-labelled       no (0)

----------
experiment: Plasmodium falciparum growth inhibition, primary screen, strain 3D7, DAPI fluorescence, 100 nL (AID 1184);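 also: parasites grown inside human red blood cells in medium with human serum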; details: P. falciparum 3D7 growth, 3 d, higher = more signal
measured.property: z-score

> print(dat)
                                   compound  measured.property  observed.measurement
1  COc1ccc(COC(=O)NN=C2C[C@@H](O)[C@@H](O)[C@@H]3[C@@H]4C(=O)N(c5ccc(F)cc5F)C(=O)[C@@H]4CC[C@@H]23)cc1            z-score                -0.351
2  O=C1O[C@@H](c2ccccc2)[C@@H](c2ccccc2)N2[C@@H](c3ccc(O)cc3)[C@]3(C(=O)Nc4ccccc43)[C@@H](C(=O)O)[C@H]12            z-score                 -1.73
3  C[C@H](c1ccccc1)N1C(=O)[C@H]2[C@H]3[C@H](O)[C@H](O)CC(=O)[C@@H]3CC[C@H]2C1=O            z-score                0.0307
4  COc1ccc(-c2nc3c(c4c2C[C@H](C)OC4)CN(CCC(C)C)CC3)cc1            z-score                 0.888
5  CC1CC/C=C\[C@H]2OC34C=CCN(C(C)C)C(=O)[C@H]3N(CCCO)C(=O)[C@@H]4C2C(=O)O1 (some centres not stated)            z-score               -0.0943
6  COc1ccc(O[C@H]2C=C[C@@H](c3ccccc3)O[C@@H]2COC(=O)CCC(C)=NOC(C)CN2CCCCc3nc(C)c(C)cc32)cc1 (some centres not stated)            z-score                 -1.34
7  CC(C)NC(=O)[C@@H]1c2ccccc2C(=O)N(CC23CC4CC(CC(C4)C2)C3)[C@H]1c1ccc(CO)cc1            z-score                 -1.84
